molecular target: mouse mu opioid receptor (Mus musculus); experiment: [35S]GTPγS functional assay (mMOR-CHO membranes); conditions: mMOR-CHO membranes; read-out: GTPgS EC50
Sequence (P42866 whole entry): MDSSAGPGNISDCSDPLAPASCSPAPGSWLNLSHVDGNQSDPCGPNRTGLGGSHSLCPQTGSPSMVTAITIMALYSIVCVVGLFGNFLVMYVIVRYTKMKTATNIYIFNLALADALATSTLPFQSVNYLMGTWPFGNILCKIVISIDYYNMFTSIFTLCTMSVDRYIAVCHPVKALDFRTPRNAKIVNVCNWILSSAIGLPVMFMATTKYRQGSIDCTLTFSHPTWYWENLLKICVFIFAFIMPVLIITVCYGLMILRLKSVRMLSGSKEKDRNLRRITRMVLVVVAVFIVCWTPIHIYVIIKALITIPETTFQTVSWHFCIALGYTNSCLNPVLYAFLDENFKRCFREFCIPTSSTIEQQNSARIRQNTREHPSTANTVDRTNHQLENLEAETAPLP
pEC50: −log10 of the molar value.
Parameter: pEC50. Scope: all listed entries.

- COMPOUND: "C/C=C\\[C@@H]1[C@H]2CCC[C@]1(c1cccc(O)c1)CCN2CCc1ccccc1 [Compound 18]"
  pEC50: 8.08
- COMPOUND: "C=C[C@H]1[C@H]2CCC[C@]1(c1cccc(O)c1)CCN2CCc1ccccc1 [Compound 8]"
  pEC50: 8.17
- COMPOUND: "C=C[C@@H]1[C@H]2CCC[C@]1(c1cccc(O)c1)CCN2CCc1ccccc1 [Compound 9]"
  pEC50: 7.43
- COMPOUND: "C/C=C\\[C@H]1[C@H]2CCC[C@]1(c1cccc(O)c1)CCN2CCc1ccccc1 [Compound 17]"
  pEC50: 8.02

====

Known Emax of a selection of molecules
target: UniProt:P41143; experiment: Forskolin-induced cAMP accumulation assay, DOR agonist mode; settings: CHO-K1, read-out: DOR Agonist %Emax ± SEM
PROPERTY_LABEL: Emax (%)

- SMILES_DATA: "C/C=C\\[C@@H]1[C@@H]2CCC[C@@]1(c1cccc(O)c1)CCN2CCc1ccccc1"
  PROPERTY_LABEL: "Emax"
  NUMBER: 66.7
- SMILES_DATA: "C/C=C\\[C@@H]1[C@H]2CCC[C@]1(c1cccc(O)c1)CCN2CCc1ccccc1"
  PROPERTY_LABEL: "Emax"
  NUMBER: 74.5
- SMILES_DATA: "C=C[C@@H]1[C@@H]2CCC[C@@]1(c1cccc(O)c1)CCN2CCc1ccccc1"
  PROPERTY_LABEL: "Emax"
  NUMBER: 40.6
- SMILES_DATA: "C=C[C@@H]1[C@H]2CCC[C@]1(c1cccc(O)c1)CCN2CCc1ccccc1"
  PROPERTY_LABEL: "Emax"
  NUMBER: 22.6

====

Here, each record is paired with measured EC50 data.
target: human δ-opioid receptor (OPRD1) (Homo sapiens, UniProt P41143); test: Forskolin-induced cAMP accumulation assay, DOR agonist mode
Sequence (P41143 whole entry): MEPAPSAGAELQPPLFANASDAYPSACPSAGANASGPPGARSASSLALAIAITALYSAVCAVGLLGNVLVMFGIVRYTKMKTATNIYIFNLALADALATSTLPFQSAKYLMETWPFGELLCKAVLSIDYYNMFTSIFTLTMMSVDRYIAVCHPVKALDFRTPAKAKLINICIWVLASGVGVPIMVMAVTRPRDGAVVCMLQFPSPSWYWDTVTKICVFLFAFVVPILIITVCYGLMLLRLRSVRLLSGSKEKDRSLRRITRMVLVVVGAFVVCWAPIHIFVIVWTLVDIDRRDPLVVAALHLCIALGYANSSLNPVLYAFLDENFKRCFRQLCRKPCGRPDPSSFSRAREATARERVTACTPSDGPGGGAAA
PROPERTY_LABEL: EC50

- SMILES_DATA: "C/C=C\\[C@H]1[C@@H]2CCC[C@@]1(c1cccc(O)c1)CCN2CCc1ccccc1"
  RESULT: "> 10000 nM"
- SMILES_DATA: "CC/C=C\\[C@H]1[C@@H]2CCC[C@@]1(c1cccc(O)c1)CCN2CCc1ccccc1"
  RESULT: "> 10000 nM"
- SMILES_DATA: "C=C[C@H]1[C@H]2CCC[C@]1(c1cccc(O)c1)CCN2CCc1ccccc1"
  RESULT: "> 10000 nM"
- SMILES_DATA: "C=C[C@@H]1[C@@H]2CCC[C@@]1(c1cccc(O)c1)CCN2CCc1ccccc1"
  RESULT: "122 nM"
- SMILES_DATA: "C=C[C@H]1[C@@H]2CCC[C@@]1(c1cccc(OC)c1)CCN2CCc1ccccc1"
  RESULT: "> 10000 nM"
- SMILES_DATA: "C/C=C\\[C@H]1[C@H]2CCC[C@]1(c1cccc(O)c1)CCN2CCc1ccccc1"
  RESULT: "> 10000 nM"
- SMILES_DATA: "C=C[C@@H]1[C@H]2CCC[C@]1(c1cccc(O)c1)CCN2CCc1ccccc1"
  RESULT: "57 nM"
- SMILES_DATA: "C/C=C\\[C@@H]1[C@H]2CCC[C@]1(c1cccc(O)c1)CCN2CCc1ccccc1"
  RESULT: "9.69 nM"
